- testedSystem: C-X-C chemokine receptor type 4 (Homo sapiens)
- Sequence (P61073 whole entry): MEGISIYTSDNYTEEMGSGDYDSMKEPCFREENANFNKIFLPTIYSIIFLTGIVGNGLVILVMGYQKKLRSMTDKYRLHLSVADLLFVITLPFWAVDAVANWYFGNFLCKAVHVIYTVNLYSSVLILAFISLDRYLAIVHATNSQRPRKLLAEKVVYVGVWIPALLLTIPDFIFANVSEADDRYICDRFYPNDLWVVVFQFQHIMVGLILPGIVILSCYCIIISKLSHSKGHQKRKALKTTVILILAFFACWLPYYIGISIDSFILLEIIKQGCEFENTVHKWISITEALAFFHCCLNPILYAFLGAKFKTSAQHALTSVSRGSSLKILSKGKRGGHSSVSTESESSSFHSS
- assaySummary: Inhibition of [125I]SDF-1 binding to C-X-C chemokine receptor type 4 (CXCR4) expressed in CHO cells
- Type: cell-based
pIC50: −log10 of the molar value.
parameterMeasured: pIC50

Guide cases for pIC50, answers given:
[[record]]
molsmiles = "N=C(N)NCCC[C@@H]1NC(=O)[C@H]2CCCN2C(=O)[C@@H](Cc2ccc(O)cc2)NC(=O)CNC(=O)[C@H](Cc2ccc3ccccc3c2)NC1=O"
parametermeasured = "pIC50"
observedresult = 6.38

[[record]]
molsmiles = "N=C(N)NCCC[C@@H]1NC(=O)[C@@H](CCC(=O)O)NC(=O)[C@@H](Cc2ccc(O)cc2)NC(=O)CNC(=O)[C@H](Cc2ccc3ccccc3c2)NC1=O"
parametermeasured = "pIC50"
observedresult = 6.21


1. N=C(N)NCCC[C@@H]1NC(=O)[C@@H](NC(=O)CCNC(=N)N)CSSC[C@H](C(=O)NCCc2ccc(O)cc2)NC(=O)[C@H](Cc2ccc3ccccc3c2)NC1=O
2. N=C(N)NCCC[C@@H]1NC(=O)[C@@H]2CCCN2C(=O)[C@@H](Cc2ccc(O)cc2)NC(=O)CNC(=O)[C@H](Cc2ccc3ccccc3c2)NC1=O
3. N=C(N)NCCCN[C@H]1CSSC[C@H](C(=O)NCCc2ccc(O)cc2)NC(=O)[C@H](Cc2ccc3ccccc3c2)NC(=O)[C@H](CCCNC(=N)N)NC1=O
4. N=C(N)NCCC[C@@H]1NC(=O)[C@@H](CCC(N)=O)NC(=O)[C@@H](Cc2ccc(O)cc2)NC(=O)CNC(=O)[C@H](Cc2ccc3ccccc3c2)NC1=O
Sort the compounds on pIC50; start with the lowest figure. Write the labels, ordered according to the request. 2, 3, 1, 4

----------
# IC50 per record follows
- testedSystem: C-X-C chemokine receptor type 4 (Homo sapiens)
- assaySummary: Inhibition of [125I]SDF-1 binding to C-X-C chemokine receptor type 4 (CXCR4) expressed in CHO cells
- Assay type: cell-based
- conditionInfo: cho

[[record]]
molsmiles = "N=C(N)NCCC[C@@H]1NC(=O)[C@H](Cc2ccc(O)cc2)NC(=O)/C=C\\[C@@H](Cc2ccc3ccccc3c2)NC(=O)[C@@H](CCCNC(=N)N)NC1=O"
parametermeasured = "IC50"
observedresult = "> 1 µM"


Measured IC50, "N=C(N)NCCC[C@H]1NC(=O)[C@@H](CCCN=C(N)N)NC(=O)[C@H](Cc2ccc(O)cc2)NC(=O)/C=C\[C@@H](Cc2ccc3ccccc3c2)NC1=O" : > 1 µM
